# maps each entry to its IC50
# tgt: farnesyl protein transferase (Homo sapiens, UniProt P49354+P49356)
# Sequence (P49356 whole entry, one chain of several): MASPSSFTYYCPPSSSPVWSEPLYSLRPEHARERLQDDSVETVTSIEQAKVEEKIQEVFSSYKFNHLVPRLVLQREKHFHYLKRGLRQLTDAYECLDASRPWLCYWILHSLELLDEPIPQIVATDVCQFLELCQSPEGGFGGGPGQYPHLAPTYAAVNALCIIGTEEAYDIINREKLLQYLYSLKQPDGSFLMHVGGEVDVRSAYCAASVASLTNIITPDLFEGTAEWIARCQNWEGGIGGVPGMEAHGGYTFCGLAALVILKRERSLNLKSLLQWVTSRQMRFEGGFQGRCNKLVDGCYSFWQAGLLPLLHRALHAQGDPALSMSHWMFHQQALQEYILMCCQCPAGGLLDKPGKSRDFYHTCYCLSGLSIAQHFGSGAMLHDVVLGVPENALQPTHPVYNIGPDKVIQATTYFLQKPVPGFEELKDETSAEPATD
# measurementNotes: FPT inhibition, in vitro enzyme assay (H-ras)
# Type: biochemical
// return numeric value only (unit: nM, not printed)

CCS(=O)(=O)N1CCC(CC(=O)N2CCC([C@H]3c4ncc(Br)cc4CCc4cc(Cl)cc(Br)c43)CC2)CC1 3.7
CCCS(=O)(=O)N1CCC(CC(=O)N2CCC([C@H]3c4ncc(Br)cc4CCc4cc(Cl)cc(Br)c43)CC2)CC1 5
CC(C)S(=O)(=O)N1CCC(CC(=O)N2CCC([C@H]3c4ncc(Br)cc4CCc4cc(Cl)cc(Br)c43)CC2)CC1 5.8

Now for another entry.
input: Look at this compound and give its reported IC50. CC1(C)[C@@H]2CC[C@@]1(CS(=O)(=O)N1CCC(CC(=O)N3CCC([C@H]4c5ncc(Br)cc5CCc5cc(Cl)cc(Br)c54)CC3)CC1)C(=O)C2
output: 34.1

From: patent US5945429A
